biological target: full-length ATR (Homo sapiens); construct: Assays were carried out at 25° C. in the presence of 5 nM full-length ATR; assay: ATR Inhibition Assay (radioactive-phosphate incorporation); assay type: biochemical; details: at 15 uM compound; read-out: percent inhibition against ATR
Sequence (Q13535 whole entry): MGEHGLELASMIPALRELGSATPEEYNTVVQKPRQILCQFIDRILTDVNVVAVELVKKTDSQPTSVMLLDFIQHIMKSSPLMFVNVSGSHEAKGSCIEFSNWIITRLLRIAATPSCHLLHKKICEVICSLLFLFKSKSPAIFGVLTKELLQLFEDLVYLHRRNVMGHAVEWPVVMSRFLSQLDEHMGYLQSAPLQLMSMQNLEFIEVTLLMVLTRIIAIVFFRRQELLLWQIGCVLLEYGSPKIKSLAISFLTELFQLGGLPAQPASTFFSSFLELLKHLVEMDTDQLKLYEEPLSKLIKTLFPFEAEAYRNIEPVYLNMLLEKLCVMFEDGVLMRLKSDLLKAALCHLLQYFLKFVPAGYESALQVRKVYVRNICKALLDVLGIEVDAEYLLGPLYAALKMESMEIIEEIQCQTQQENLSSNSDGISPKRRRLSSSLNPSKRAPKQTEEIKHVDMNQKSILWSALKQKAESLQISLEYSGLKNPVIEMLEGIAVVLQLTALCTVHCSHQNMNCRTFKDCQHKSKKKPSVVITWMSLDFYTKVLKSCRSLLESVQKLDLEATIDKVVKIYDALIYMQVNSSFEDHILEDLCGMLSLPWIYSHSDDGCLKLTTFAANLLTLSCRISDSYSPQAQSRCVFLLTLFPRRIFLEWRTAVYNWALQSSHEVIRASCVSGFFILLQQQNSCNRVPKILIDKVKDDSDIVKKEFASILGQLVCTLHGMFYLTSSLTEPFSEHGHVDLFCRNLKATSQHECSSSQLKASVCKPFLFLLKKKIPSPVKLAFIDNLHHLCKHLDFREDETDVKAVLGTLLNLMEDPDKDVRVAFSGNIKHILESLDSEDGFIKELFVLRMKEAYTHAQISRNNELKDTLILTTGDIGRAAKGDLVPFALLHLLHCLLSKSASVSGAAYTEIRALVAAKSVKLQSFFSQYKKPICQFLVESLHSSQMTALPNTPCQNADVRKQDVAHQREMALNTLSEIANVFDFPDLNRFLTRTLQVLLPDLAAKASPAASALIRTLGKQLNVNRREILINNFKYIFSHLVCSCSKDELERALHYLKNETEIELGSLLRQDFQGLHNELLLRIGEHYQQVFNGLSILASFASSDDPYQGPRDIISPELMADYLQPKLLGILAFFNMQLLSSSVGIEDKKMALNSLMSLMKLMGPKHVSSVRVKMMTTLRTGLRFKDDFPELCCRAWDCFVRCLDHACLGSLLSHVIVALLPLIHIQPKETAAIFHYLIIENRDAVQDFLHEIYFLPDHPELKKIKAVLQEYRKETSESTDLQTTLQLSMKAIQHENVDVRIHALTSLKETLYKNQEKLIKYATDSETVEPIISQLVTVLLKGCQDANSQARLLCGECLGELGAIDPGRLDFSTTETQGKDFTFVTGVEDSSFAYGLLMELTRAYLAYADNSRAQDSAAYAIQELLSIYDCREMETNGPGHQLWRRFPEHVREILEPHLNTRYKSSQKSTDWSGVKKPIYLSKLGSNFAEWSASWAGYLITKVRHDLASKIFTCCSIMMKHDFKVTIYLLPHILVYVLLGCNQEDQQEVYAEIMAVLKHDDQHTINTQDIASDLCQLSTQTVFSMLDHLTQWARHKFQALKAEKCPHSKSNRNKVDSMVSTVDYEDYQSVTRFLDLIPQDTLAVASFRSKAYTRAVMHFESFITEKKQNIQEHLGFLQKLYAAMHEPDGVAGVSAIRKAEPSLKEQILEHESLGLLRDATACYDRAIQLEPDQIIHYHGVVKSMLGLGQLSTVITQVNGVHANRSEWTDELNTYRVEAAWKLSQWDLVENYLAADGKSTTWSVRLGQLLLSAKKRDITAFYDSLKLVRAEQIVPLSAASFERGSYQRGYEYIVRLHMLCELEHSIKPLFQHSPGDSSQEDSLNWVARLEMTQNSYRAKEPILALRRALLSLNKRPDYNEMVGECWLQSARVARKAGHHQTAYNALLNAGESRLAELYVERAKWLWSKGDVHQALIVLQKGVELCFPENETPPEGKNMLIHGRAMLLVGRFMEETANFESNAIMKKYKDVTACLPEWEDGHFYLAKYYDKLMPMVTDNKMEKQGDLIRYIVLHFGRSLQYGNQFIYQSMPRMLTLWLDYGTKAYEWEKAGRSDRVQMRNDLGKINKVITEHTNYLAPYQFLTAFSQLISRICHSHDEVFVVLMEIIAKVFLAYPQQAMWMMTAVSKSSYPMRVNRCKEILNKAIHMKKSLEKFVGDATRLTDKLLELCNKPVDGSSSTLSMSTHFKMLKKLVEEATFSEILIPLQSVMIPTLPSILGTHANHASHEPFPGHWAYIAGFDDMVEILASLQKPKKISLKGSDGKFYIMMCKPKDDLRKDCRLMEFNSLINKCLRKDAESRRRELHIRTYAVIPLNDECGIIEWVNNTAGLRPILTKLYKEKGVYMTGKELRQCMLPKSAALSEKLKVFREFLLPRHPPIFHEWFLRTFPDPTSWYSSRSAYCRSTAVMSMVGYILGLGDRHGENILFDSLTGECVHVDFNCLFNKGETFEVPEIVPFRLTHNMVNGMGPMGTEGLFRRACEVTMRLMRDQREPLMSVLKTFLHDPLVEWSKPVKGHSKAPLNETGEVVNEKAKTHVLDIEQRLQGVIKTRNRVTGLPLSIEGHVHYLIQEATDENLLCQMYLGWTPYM
Please respond with reported inhibition at 15 µM for every item in the list.

Illustrative cases are given below, each with its answer.
compound_smiles=Nc1ncc(Sc2ccccc2)nc1-c1nc2ccccc2[nH]1 readout_kind="inhibition at 15 µM" result="15 to 24%"
compound_smiles=Cc1cccc(Oc2cnc(N)c(-c3nc4ccccc4[nH]3)n2)c1 readout_kind="inhibition at 15 µM" result="15 to 24%"
compound_smiles=Cc1ccc2nc(-c3nc(OCCN4CCCCC4)cnc3N)[nH]c2c1 readout_kind="inhibition at 15 µM" result="25 to 45%"
compound_smiles=Cc1ccc2nc(-c3nc(C(=O)NCC4CCCCC4)cnc3N)[nH]c2c1 readout_kind="inhibition at 15 µM" result="25 to 45%"

Next, consider the following molecule.
inhibition at 15 µM for COc1ccc(Oc2cnc(N)c(-c3nc4ccc(C)cc4[nH]3)n2)cc1 is 25 to 45%

Data origin: patent US8962631B2
